Assign Max growth inhibition (%) Dd2 to each entry below.
Molecular target: PfRH5 of Plasmodium falciparum strain Dd2 (on live parasites) (Plasmodium falciparum)
Experiment: cell-based or functional assay
One number for each entry, in %.

Example entries begin here.
[
  {
    "BINDER": "H1H29127P (antibody, V domains shown) VH: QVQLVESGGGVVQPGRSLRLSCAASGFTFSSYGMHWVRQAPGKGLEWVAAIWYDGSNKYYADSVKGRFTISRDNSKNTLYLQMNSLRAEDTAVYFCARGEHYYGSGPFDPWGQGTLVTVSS VL: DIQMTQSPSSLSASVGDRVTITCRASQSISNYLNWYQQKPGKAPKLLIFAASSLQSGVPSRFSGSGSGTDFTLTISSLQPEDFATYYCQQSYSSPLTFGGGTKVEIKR",
    "Max growth inhibition (%) Dd2": 64.7
  },
  {
    "BINDER": "H1H29100P (antibody, V domains shown) VH: QLQLQESGPGLVKPSETLSLTCTVSGGSISSSSYYWGWIRQPPGKGLEWIGIIYYSGSTYYNPSLKSRVTISVDTSKNQFSLKLSSVTAADTAVYYCARQDREALFDYWGQGTLVTVSS VL: EIVLTQSPDFQSVTPKEKVTITCRASQRIGSSLHWYQQKPDQSPKLLIKYASQSFSGVPSRFSGSGSGTDFTLTINSLEAEDAATYYCHQSSTLPTFGQGTRLEIKR",
    "Max growth inhibition (%) Dd2": 64.6
  }
]

Input line: Can you look up the measured Max growth inhibition (%) Dd2 of H1H29138P (antibody, V domains shown) VH: QVQLVESGGGVVQPGRSLRLSCAASGFTFSTYGMHWVRQAPGKGLEWVAVIWYDGTNKYYADSVKGRFTISRDNSKNTLYLQMISLRAEDTAVYYCARDPSGGDHYYYYGMDVWGQGTTVTVSS VL: DIQMTQSPSSLSASVGDRITITCQASQDISNYLNWYQQKPGKAPNLLISDASDLETGVPSRFSGSGSGTDFTFTISSLQPEDFATYYCQQYDNIPITFGQGTRLEIKR for me?
Output line: 74.4

Measured values drawn from patent US20240400663A1 for this set.
